# IC50 annotations
Biological target: Caspase-1 (Homo sapiens, UniProt P29466)
Sequence (P29466 whole entry): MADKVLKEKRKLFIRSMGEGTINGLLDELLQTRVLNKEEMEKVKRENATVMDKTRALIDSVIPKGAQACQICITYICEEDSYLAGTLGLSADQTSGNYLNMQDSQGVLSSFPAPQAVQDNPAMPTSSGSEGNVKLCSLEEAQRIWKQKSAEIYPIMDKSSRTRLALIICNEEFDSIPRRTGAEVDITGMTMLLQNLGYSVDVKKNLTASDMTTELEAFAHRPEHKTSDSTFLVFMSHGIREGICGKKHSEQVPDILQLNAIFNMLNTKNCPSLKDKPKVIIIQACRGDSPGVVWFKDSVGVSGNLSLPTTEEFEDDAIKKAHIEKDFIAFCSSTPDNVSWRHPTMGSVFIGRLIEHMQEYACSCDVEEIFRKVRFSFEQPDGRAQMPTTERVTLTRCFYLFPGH
propertyMeasured: IC50

- smilesString: "O=C1C(=O)N(Cc2ccc(OCCF)cc2)c2ccc(S(=O)(=O)N3CC[C@H]3COc3ccccc3)cc21"
  targetEntity: "Caspase-1 (Homo sapiens, UniProt P29466)"
  propertyMeasured: "IC50"
  assayValue: "> 20 µM"
- smilesString: "O=C1C(=O)N(Cc2ccc(OCCOCCOCCF)cc2)c2ccc(S(=O)(=O)N3CC[C@H]3COc3ccccc3)cc21"
  targetEntity: "Caspase-1 (Homo sapiens, UniProt P29466)"
  propertyMeasured: "IC50"
  assayValue: "> 25 µM"
- smilesString: "O=C1C(=O)N(Cc2ccc(OCCF)cc2)c2ccc(S(=O)(=O)N3CC[C@H]3COc3cccnc3)cc21"
  targetEntity: "Caspase-1 (Homo sapiens, UniProt P29466)"
  propertyMeasured: "IC50"
  assayValue: "> 10 µM"
- smilesString: "O=C1C(=O)N(Cc2cn(CCF)nn2)c2ccc(S(=O)(=O)N3CCC[C@H]3COc3ccc(F)cc3F)cc21"
  targetEntity: "Caspase-1 (Homo sapiens, UniProt P29466)"
  propertyMeasured: "IC50"
  assayValue: "> 20 µM"
- smilesString: "O=C1C(=O)N(Cc2cn(CCF)nn2)c2ccc(S(=O)(=O)N3CC[C@H]3COc3cccnc3)cc21"
  targetEntity: "Caspase-1 (Homo sapiens, UniProt P29466)"
  propertyMeasured: "IC50"
  assayValue: "> 20 µM"
- smilesString: "N#CC(C#N)=C1C(=O)N(Cc2ccc(OCCOCCF)cc2)c2ccc(S(=O)(=O)N3CC[C@H]3COc3ccccc3)cc21"
  targetEntity: "Caspase-1 (Homo sapiens, UniProt P29466)"
  propertyMeasured: "IC50"
  assayValue: "5.73 µM"
- smilesString: "O=C1C(=O)N(Cc2ccc(OCCOCCOCCF)cc2)c2ccc(S(=O)(=O)N3CCC[C@H]3COc3ccccc3)cc21"
  targetEntity: "Caspase-1 (Homo sapiens, UniProt P29466)"
  propertyMeasured: "IC50"
  assayValue: "> 50 µM"
- smilesString: "COc1ccc(CN2C(=O)C(=O)c3cc(S(=O)(=O)N4CC[C@H]4COc4cccnc4)ccc32)cc1"
  targetEntity: "Caspase-1 (Homo sapiens, UniProt P29466)"
  propertyMeasured: "IC50"
  assayValue: "> 15 µM"
- smilesString: "COc1ccc(CN2C(=O)C(=C(C#N)C#N)c3cc(S(=O)(=O)N4CC[C@H]4COc4cccnc4)ccc32)cc1"
  targetEntity: "Caspase-1 (Homo sapiens, UniProt P29466)"
  propertyMeasured: "IC50"
  assayValue: "> 36 µM"
- smilesString: "N#CC(C#N)=C1C(=O)N(Cc2ccc(OCCF)cc2)c2ccc(S(=O)(=O)N3CCC[C@H]3COc3ccccc3)cc21"
  targetEntity: "Caspase-1 (Homo sapiens, UniProt P29466)"
  propertyMeasured: "IC50"
  assayValue: "> 10 µM"
- smilesString: "O=C1C(=O)N(Cc2cn(CCF)nn2)c2ccc(S(=O)(=O)N3CC[C@H]3COc3ccccc3)cc21"
  targetEntity: "Caspase-1 (Homo sapiens, UniProt P29466)"
  propertyMeasured: "IC50"
  assayValue: "> 20 µM"
- smilesString: "O=C1C(=O)N(Cc2ccc(OCCF)cc2)c2ccc(S(=O)(=O)N3CCC[C@H]3COc3ccc(F)cc3F)cc21"
  targetEntity: "Caspase-1 (Homo sapiens, UniProt P29466)"
  propertyMeasured: "IC50"
  assayValue: "> 50 µM"
- smilesString: "N#CC(C#N)=C1C(=O)N(Cc2ccc(OCCF)cc2)c2ccc(S(=O)(=O)N3CC[C@H]3COc3cccnc3)cc21"
  targetEntity: "Caspase-1 (Homo sapiens, UniProt P29466)"
  propertyMeasured: "IC50"
  assayValue: "2.9 µM"
- smilesString: "O=C1C(=O)N(Cc2cn(CCF)nn2)c2ccc(S(=O)(=O)N3CC[C@H]3COc3ccc(F)cc3F)cc21"
  targetEntity: "Caspase-1 (Homo sapiens, UniProt P29466)"
  propertyMeasured: "IC50"
  assayValue: "> 20 µM"
- smilesString: "O=C1C(=O)N(Cc2ccc(OCCF)cc2)c2ccc(S(=O)(=O)N3CCC[C@H]3COc3cccnc3)cc21"
  targetEntity: "Caspase-1 (Homo sapiens, UniProt P29466)"
  propertyMeasured: "IC50"
  assayValue: "> 20 µM"
- smilesString: "O=C1C(=O)N(Cc2cn(CCF)nn2)c2ccc(S(=O)(=O)N3CCC[C@H]3COc3cccnc3)cc21"
  targetEntity: "Caspase-1 (Homo sapiens, UniProt P29466)"
  propertyMeasured: "IC50"
  assayValue: "> 20 µM"

Taken from ChEMBL document CHEMBL1759857.
